- targetSystem: human ether-à-go-go-related gene (hERG) potassium channel (human);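 note: peak tail current of the secondary pulse compared with the same well before compound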
- Sequence (Q12809 whole entry, looked up): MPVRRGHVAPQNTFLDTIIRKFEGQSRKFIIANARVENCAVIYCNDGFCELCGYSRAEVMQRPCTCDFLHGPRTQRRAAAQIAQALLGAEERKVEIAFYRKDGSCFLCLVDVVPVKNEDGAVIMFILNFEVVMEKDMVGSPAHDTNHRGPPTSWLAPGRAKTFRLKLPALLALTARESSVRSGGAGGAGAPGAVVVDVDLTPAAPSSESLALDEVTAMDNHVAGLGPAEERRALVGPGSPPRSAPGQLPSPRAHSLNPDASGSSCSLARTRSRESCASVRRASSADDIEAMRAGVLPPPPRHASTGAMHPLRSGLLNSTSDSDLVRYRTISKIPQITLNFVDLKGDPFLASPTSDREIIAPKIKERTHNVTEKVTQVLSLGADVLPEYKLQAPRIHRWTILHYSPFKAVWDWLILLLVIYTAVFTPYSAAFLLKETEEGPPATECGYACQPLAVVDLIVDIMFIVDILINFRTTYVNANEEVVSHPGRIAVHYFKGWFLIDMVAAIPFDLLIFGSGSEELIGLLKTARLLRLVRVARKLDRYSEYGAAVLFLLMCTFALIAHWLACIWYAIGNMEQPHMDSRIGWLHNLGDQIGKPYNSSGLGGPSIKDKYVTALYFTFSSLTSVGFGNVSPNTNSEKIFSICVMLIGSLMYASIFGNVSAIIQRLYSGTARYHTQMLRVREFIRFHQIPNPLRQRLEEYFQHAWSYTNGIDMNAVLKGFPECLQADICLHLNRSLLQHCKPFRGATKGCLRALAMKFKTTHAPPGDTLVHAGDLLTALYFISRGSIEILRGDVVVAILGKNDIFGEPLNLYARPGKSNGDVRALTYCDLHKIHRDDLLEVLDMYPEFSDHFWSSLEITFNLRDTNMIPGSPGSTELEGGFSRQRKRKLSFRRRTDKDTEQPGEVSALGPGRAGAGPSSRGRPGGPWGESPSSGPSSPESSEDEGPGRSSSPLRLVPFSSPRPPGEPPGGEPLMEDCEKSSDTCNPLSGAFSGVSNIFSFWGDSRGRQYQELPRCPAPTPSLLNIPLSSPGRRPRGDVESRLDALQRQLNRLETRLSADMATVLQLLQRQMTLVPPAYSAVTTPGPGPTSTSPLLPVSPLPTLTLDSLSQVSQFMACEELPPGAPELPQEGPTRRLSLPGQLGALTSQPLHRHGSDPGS
- protocol: primary screen, population patch clamp on CHO cells stably expressing hERG; higher = less effect of the substance
About 14,000 (4.5%) of roughly 310,000 compounds showed an effect of 50% or more. Effects have a minus sign here. The list comes from a sample in which strong results are over-represented; it also holds close analogues and randomly drawn compounds.
valueKind: hERG current change (%, negative = inhibition) at 10uM (%)

molecule=FC(F)(F)c1cc(-c2cccs2)nc(-n2cc(Cl)cn2)n1 targetsystem="human ether-à-go-go-related gene (hERG) potassium channel (human)" unitspec=% observedvalue=0.253
molecule=COc1cnc(-c2ccccn2)nc1Oc1ccc(Cl)cc1 targetsystem="human ether-à-go-go-related gene (hERG) potassium channel (human)" unitspec=% observedvalue=-0.157
molecule=Cc1ccc(NC(=O)CCN2CCN(C/C=C/c3ccccc3)CC2)cc1C.Cl targetsystem="human ether-à-go-go-related gene (hERG) potassium channel (human)" unitspec=% observedvalue=-71.8
molecule=COc1cnc(-c2ccccn2)nc1Oc1ccc(C(C)(C)C)cc1 targetsystem="human ether-à-go-go-related gene (hERG) potassium channel (human)" unitspec=% observedvalue=-2.72
molecule=O=[N+]([O-])c1ccc(-c2nc(=S)c3c(o2)CCCC3)cc1 targetsystem="human ether-à-go-go-related gene (hERG) potassium channel (human)" unitspec=% observedvalue=-6.53
molecule=CCOc1ccc2oc(=O)cc(CN3CCOCC3)c2c1 targetsystem="human ether-à-go-go-related gene (hERG) potassium channel (human)" unitspec=% observedvalue=-1.8
molecule="CC1CCC/C(=N\\NC(=S)Nc2ccccc2)C1 (stereo not shown)" targetsystem="human ether-à-go-go-related gene (hERG) potassium channel (human)" unitspec=% observedvalue=7.36
molecule=COc1ccc(-c2[nH]ncc2CN2C[C@@H]3CCC[C@H]2C3)c(F)c1 targetsystem="human ether-à-go-go-related gene (hERG) potassium channel (human)" unitspec=% observedvalue=8.16
molecule="Cl.OC(c1cc(C(F)(F)F)nc2c(C(F)(F)F)cccc12)C1CCCCN1 (stereo not shown)" targetsystem="human ether-à-go-go-related gene (hERG) potassium channel (human)" unitspec=% observedvalue=-12.4
molecule=Cc1[nH]c2ccccc2c1/C=N/NC(=O)c1cccc(S(=O)(=O)Nc2cccc(C(F)(F)F)c2)c1 targetsystem="human ether-à-go-go-related gene (hERG) potassium channel (human)" unitspec=% observedvalue=18.6
molecule=CCOc1ccc(CN2CCN(C(=O)c3ccco3)CC2)cc1.O=C(O)C(=O)O targetsystem="human ether-à-go-go-related gene (hERG) potassium channel (human)" unitspec=% observedvalue=-26.8
molecule=O=C(CCN1CCc2ccccc2C1)Nc1ccccc1 targetsystem="human ether-à-go-go-related gene (hERG) potassium channel (human)" unitspec=% observedvalue=-24.2
molecule=Cc1ccc(NC(=O)CN2CCc3ccccc3C2)cc1 targetsystem="human ether-à-go-go-related gene (hERG) potassium channel (human)" unitspec=% observedvalue=-30.3
molecule=O=C(C1CCCCC1)N1CCN(S(=O)(=O)c2cccc([N+](=O)[O-])c2)CC1 targetsystem="human ether-à-go-go-related gene (hERG) potassium channel (human)" unitspec=% observedvalue=-13.1
molecule="COCC1CCCCN1Cc1cn[nH]c1-c1ccc(OC)cc1OC (stereo not shown)" targetsystem="human ether-à-go-go-related gene (hERG) potassium channel (human)" unitspec=% observedvalue=-25.5
molecule=Cc1ccc(NC(=O)CCN2CCCCC2)cc1.Cl targetsystem="human ether-à-go-go-related gene (hERG) potassium channel (human)" unitspec=% observedvalue=-0.243
molecule=O=C(C1CCC1)N1CCN(S(=O)(=O)c2ccc(F)cc2)CC1 targetsystem="human ether-à-go-go-related gene (hERG) potassium channel (human)" unitspec=% observedvalue=11.4
molecule=Cc1cc(NC(=O)CCN2CCN(Cc3ccccc3)CC2)ccc1Br.Cl targetsystem="human ether-à-go-go-related gene (hERG) potassium channel (human)" unitspec=% observedvalue=-28
molecule=CCN(CC(=O)NCc1cccs1)CC(=O)Nc1c(Cl)ccc(C)c1Cl targetsystem="human ether-à-go-go-related gene (hERG) potassium channel (human)" unitspec=% observedvalue=-16.8
molecule=CC1(C)CC(NC(=O)COc2cc3oc(=O)c4c(c3cc2Cl)CCC4)CC(C)(C)N1 targetsystem="human ether-à-go-go-related gene (hERG) potassium channel (human)" unitspec=% observedvalue=11.2
molecule=C=CCn1cnc2c(c1=O)c1nc3ccccc3nc1n2/N=C/c1cc(OC)c(OC)c(OC)c1 targetsystem="human ether-à-go-go-related gene (hERG) potassium channel (human)" unitspec=% observedvalue=-22.1
molecule=O=C(C1CCC1)N1CCN(S(=O)(=O)c2ccc([N+](=O)[O-])cc2)CC1 targetsystem="human ether-à-go-go-related gene (hERG) potassium channel (human)" unitspec=% observedvalue=-62.6
molecule="COc1ccc(N2CCN(C(=O)C3CC(=O)N(c4ccc(C)cc4)C3)CC2)cc1 (stereo not shown)" targetsystem="human ether-à-go-go-related gene (hERG) potassium channel (human)" unitspec=% observedvalue=-35.1
molecule=COc1cc(CN2CCc3ccc(NC(=O)CCc4ccccc4OC)cc3C2)ccc1O targetsystem="human ether-à-go-go-related gene (hERG) potassium channel (human)" unitspec=% observedvalue=-37.3
molecule=c1cc2c(cc1-c1[nH]ncc1CN1CC3C[C@@H]4CC1C[C@H](C3)C4)OCO2 targetsystem="human ether-à-go-go-related gene (hERG) potassium channel (human)" unitspec=% observedvalue=-44.3
